Assay: Microsomal stability, human liver microsomes (predicted hepatic clearance)
Conditions: predicted from in vitro microsomal stability data
We use 4 mL/min/kg as the dividing line for Predicted Hepatic Clearance (Pred. Cl.): on or above the line is Met, below is Not met.

NC(=O)c1ccc(COc2cccc(-c3cc(F)c(Cc4nc5ccc(C(=O)O)cc5n4C[C@@H]4CCO4)cc3F)n2)cn1 [Example 826]; Not met
COCCn1c(Cc2ccc(-c3cccc(OCc4ccc(C#N)cc4OCC(F)(F)F)n3)cc2F)nc2ccc(C(=O)O)cc21 [Example 236]; Not met
N#Cc1ccc(COc2nc(-c3ccc(Cc4nc5c(F)cc(C(=O)O)cc5n4CC45CC(CO4)C5)c(F)c3)ccc2F)c(F)c1 [Example 771]; Not met

As a next step, examine the molecule that follows.
Is Predicted Hepatic Clearance (Pred. Cl.) at least 4 mL/min/kg? Consider N#CCC1(Cn2c(Cc3ccc(-c4ncc(F)c(OCc5ccc(C#N)cc5F)n4)c(F)c3)nc3ccc(C(=O)O)cc32)CC1 [Example 127]
Met

* * *

Test: Microsomal stability, human liver microsomes (predicted hepatic clearance)
Details: predicted from in vitro microsomal stability data
Entries annotated with measured Predicted Hepatic Clearance (Pred. Cl.)
Numeric only. Scale: mL/min/kg

// known answers, use as guide
COCCn1c(Cc2cc(F)c(-c3nccc(OCc4ccc(C#N)cc4F)n3)cc2F)nc2ccc(C(=O)O)cc21 [Example 159]; 6
COCCn1c(Cc2cc(F)c(-c3cccc(OCc4cccc(-c5ncccn5)c4)n3)cc2F)nc2ccc(C(=O)O)cc21 [Example 909]; 3.67
COCCn1c(Cc2cc(F)c(-c3cccc(OCc4ccc(C(F)F)cc4)n3)cc2F)nc2ccc(C(=O)O)cc21 [Example 809]; 2.83
COCCn1c(Cc2cc(F)c(-c3ncc(F)c(OCc4ccc(C#N)cc4F)n3)cc2F)nc2ccc(C(=O)O)cc21 [Example 160]; 5
COCCn1c(Cc2cc(F)c(-c3cccc(OCc4ccc(F)nc4)n3)cc2F)nc2ccc(C(=O)O)cc21 [Example 812]; 1.83

Predicted Hepatic Clearance (Pred. Cl.) reading for COCCn1c(Cc2c(F)cc(-c3cccc(OCc4ccc(C(F)F)cc4F)n3)c(F)c2F)nc2ccc(C(=O)O)cc21 [Example 750] : 4.17

Predicted Hepatic Clearance (Pred. Cl.) reading for COCCn1c(Cc2ccc(-c3nc(OCc4ccc(C#N)cc4F)ns3)cc2F)nc2ccc(C(=O)O)cc21 [Example 62] : 6.7

Predicted Hepatic Clearance (Pred. Cl.) reading for COCCn1c(Cc2ccc(-c3cccc(OCc4ccc(C#N)cc4F)n3)cc2NC(C)=O)nc2ccc(C(=O)O)cc21 [Example 65] : 7.17

Predicted Hepatic Clearance (Pred. Cl.) reading for COCCn1c(Cc2cc(F)c(-c3cccc(OCc4cccc(-c5cnn(C)c5)c4)n3)cc2F)nc2ccc(C(=O)O)cc21 [Example 913] : 3.83

Predicted Hepatic Clearance (Pred. Cl.) reading for N#Cc1ccc(COc2cccc(-c3ccc(Cc4nc5ncc(C(=O)O)cc5n4CC4(CF)CC4)c(F)c3)n2)c(F)c1 [Example 92] : 3.17

Predicted Hepatic Clearance (Pred. Cl.) reading for N#Cc1ccc(COc2cccc(-c3cc(F)c(Cc4nc5ccc(C(=O)O)cc5n4[C@@H]4C[C@H]4C(F)F)cc3F)n2)c(F)c1 [Example 720] : 5.33

Hey, just so you know, these numbers are from patent US11702404B2.
